test: ATG_ISRE_CIS: Attagene CIS-FACTORIAL HepG2 Assay for human Interferon Regulatory Factor 1 (IRF1) binding to an Interferon-Stimulated Response Element (ISRE) (AID 2282948); settings: HepG2 ISRE cis-reporter (Attagene), mRNA transcription readout; actives raise or lower the signal
Calls of active or inactive are those of the source. How the source made its calls: active means hit-call score of the fitted dose curve at least 0.9, where 1 is the maximum; inactive means score below 0.9.
Returns: one label drawn from y for active, n for inactive

Q: Given FC(F)C(F)(F)OCC(Cn1cncn1)c1ccc(Cl)cc1Cl (stereo not drawn) , state the outcome it received in this test.
Result: n

Q: Given C#CCC1=C(C)C(OC(=O)C2C(C=C(C)C)C2(C)C)CC1=O (stereo not drawn) , state the outcome it received in this test.
Result: y

Q: Given `CCOP(=S)(OCC)SCCSCC` , state the outcome it received in this test.
Result: n

Q: Given `CNC(=O)ON=C(C)SC` , state the outcome it received in this test.
Result: n

Q: Given `CCC(CC)Nc1c([N+](=O)[O-])cc(C)c(C)c1[N+](=O)[O-]` , state the outcome it received in this test.
Result: y

Continuing:
Q: Given `CCOP(=S)(OCC)Oc1ccc2c(C)c(Cl)c(=O)oc2c1` , state the outcome it received in this test.
Result: n

Q: Given `CCOC(=O)COc1cc(-c2nn(C)c(OC(F)F)c2Cl)c(F)cc1Cl` , state the outcome it received in this test.
Result: n

Q: Given CC(COc1ccc(Oc2ccccc2)cc1)Oc1ccccn1 (stereo not drawn) , state the outcome it received in this test.
Result: n

Q: Given `CN(C)C(=O)Nc1cccc(C(F)(F)F)c1` , state the outcome it received in this test.
Result: n

----------
experiment: ATG_CMV_CIS: Attagene CIS-FACTORIAL HepG2 Assay for human CMV (Internal Marker) (AID 2282928); conditions: HepG2 CMV promoter reporter, transcription factor profiling; actives raise or lower the signal;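 further: endpoint acts as a background internal control marker rather than a target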
Calls of active or inactive are those of the source. How the source made its calls: active means hit-call score of the fitted dose curve at least 0.9, where 1 is the maximum; inactive means score below 0.9.
Returns: one label drawn from label 1 (active), label 0 (inactive)

Known results for molecules:
Q: Given `CC(C)[C@H](C(=O)O[C@H](C#N)c1cccc(Oc2ccccc2)c1)c1ccc(Cl)cc1` , state the outcome it received in this test.
Result: label 0

Q: Given `CCCCSP(=O)(SCCCC)SCCCC` , state the outcome it received in this test.
Result: label 1

Q: Given `CCOP(=S)(OCC)Oc1cc(C)nc(C(C)C)n1` , state the outcome it received in this test.
Result: label 1

Q: Given CCOP(=S)(Oc1cnc(C(C)(C)C)nc1)OC(C)C (stereo unspecified) , state the outcome it received in this test.
Result: label 1

Q: Given `CCC(CC)Nc1c([N+](=O)[O-])cc(C)c(C)c1[N+](=O)[O-]` , state the outcome it received in this test.
Result: label 0

Continuing:
Q: Given CCc1cnc(C2=NC(C)(C(C)C)C(=O)N2)c(C(=O)O)c1 (stereo unspecified) , state the outcome it received in this test.
Result: label 0

Q: Given `CCNc1nc(Cl)nc(NC(C)(C)C#N)n1` , state the outcome it received in this test.
Result: label 0

Q: Given `CON=C(C(=O)OC)c1ccccc1CON=C(C)c1cccc(C(F)(F)F)c1` , state the outcome it received in this test.
Result: label 0

Q: Given `CC1=NNC(=O)N(/N=C/c2cccnc2)C1` , state the outcome it received in this test.
Result: label 0

Q: Given `CC(C)N(C(=O)SCC(Cl)=C(Cl)Cl)C(C)C` , state the outcome it received in this test.
Result: label 0

Q: Given `CN(C)NC(=O)CCC(=O)O` , state the outcome it received in this test.
Result: label 0

Q: Given CCOP(=O)(SC(C)CC)N1CCSC1=O (stereo unspecified) , state the outcome it received in this test.
Result: label 0

Q: Given `CSC1=N[C@@](C)(c2ccccc2)C(=O)N1Nc1ccccc1` , state the outcome it received in this test.
Result: label 0

Q: Given COP(=O)(NC(C)=O)SC (stereo unspecified) , state the outcome it received in this test.
Result: label 0

Q: Given CC(COc1ccc(Oc2ccccc2)cc1)Oc1ccccn1 (stereo unspecified) , state the outcome it received in this test.
Result: label 0

Q: Given `CC1(C(=O)Nc2ccc(O)c(Cl)c2Cl)CCCCC1` , state the outcome it received in this test.
Result: label 0

Q: Given `CCOC(=O)COc1cc(-c2nn(C)c(OC(F)F)c2Cl)c(F)cc1Cl` , state the outcome it received in this test.
Result: label 0

Q: Given `Cc1cc(C2CC2)nc(Nc2ccccc2)n1` , state the outcome it received in this test.
Result: label 1

Q: Given `CNc1cnn(-c2cccc(C(F)(F)F)c2)c(=O)c1Cl` , state the outcome it received in this test.
Result: label 0

Q: Given CCOP(=S)(OCC)OC(Cl)C(Cl)(Cl)Cl (stereo unspecified) , state the outcome it received in this test.
Result: label 1

Q: Given COP(=O)(OC)C(O)C(Cl)(Cl)Cl (stereo unspecified) , state the outcome it received in this test.
Result: label 1

Q: Given `N#CSCSC#N` , state the outcome it received in this test.
Result: label 0

Q: Given CC(C1CC1)C(O)(Cn1cncn1)c1ccc(Cl)cc1 (stereo unspecified) , state the outcome it received in this test.
Result: label 0

Q: Given `CCc1cccc(CC)c1N(COC)C(=O)CCl` , state the outcome it received in this test.
Result: label 0

Q: Given `CCOP(=S)(OCC)Oc1ccc2c(C)c(Cl)c(=O)oc2c1` , state the outcome it received in this test.
Result: label 0

Q: Given `O=C(O)c1cc(Oc2ccc(C(F)(F)F)cc2Cl)ccc1[N+](=O)[O-]` , state the outcome it received in this test.
Result: label 0

Q: Given `C[N+]1(C)CCCCC1` , state the outcome it received in this test.
Result: label 0

Q: Given `O=[N+]([O-])c1cc(C(F)(F)F)c(Cl)c([N+](=O)[O-])c1Nc1ncc(C(F)(F)F)cc1Cl` , state the outcome it received in this test.
Result: label 0

----------
read-out: Urokinase-type plasminogen activator receptor (uPAR), PLAUR (gene 5329); assay: BSK_BE3C_uPAR: BioMAP Diversity Plus: BE3C Assay for Urokinase-type plasminogen activator receptor (uPAR) Biomarker Activity (AID 2283039); conditions: primary human bronchial epithelial cells; actives raise or lower the signal;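 further: uPAR protein level measured by ELISA on the cells; cells exposed to compound for one day before measurement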
Active and inactive are the calls of the source. The calls were made as follows: active = hit-call score of the fitted dose curve at least 0.9, where 1 is the maximum; inactive = score below 0.9.
Reported Metric: outcome

Query FC(F)C(F)(F)OCC(Cn1cncn1)c1ccc(Cl)cc1Cl (stereo not drawn) yields outcome of inactive

Query CCOP(=S)(OCC)OC(Cl)C(Cl)(Cl)Cl (stereo not drawn) yields outcome of inactive

Query `CSc1nc(NC(C)C)nc(NC(C)C)n1` yields outcome of inactive

----------
system: rat CYP3A1, gene 25642; assay: NVS_ADME_rCYP3A1: NovaScreen (NVS) CYP450-related Enzyme Activity (ADME) Assay for rat CYP3A1 (AID 2283126)
The source made the active and inactive calls. The calls were made as follows: active = hit-call score of the fitted dose curve at least 0.9, where 1 is the maximum; inconclusive = response in the unintended direction; inactive = score below 0.9.
Returns: one label drawn from active, inactive

Known results for molecules:
Q: Given `O=C(O)c1cc(Oc2ccc(C(F)(F)F)cc2Cl)ccc1[N+](=O)[O-]` , state the outcome it received in this test.
Result: active

Q: Given `CC[C@H](C)[C@H]1O[C@]2(C=C[C@@H]1C)C[C@@H]1C[C@@H](C/C=C(\C)[C@@H](O[C@H]3C[C@H](OC)[C@@H](O[C@H]4C[C@H](OC)[C@@H](NC)[C@H](C)O4)[C@H](C)O3)[C@@H](C)/C=C/C=C3\CO[C@@H]4[C@H](O)C(C)=C[C@@H](C(=O)O1)[C@]34O)O2` , state the outcome it received in this test.
Result: active

Q: Given CCOC(=O)CC(SP(=O)(OC)OC)C(=O)OCC (centres undefined) , state the outcome it received in this test.
Result: inactive

Q: Given C#CCC1=C(C)C(OC(=O)C2C(C=C(C)C)C2(C)C)CC1=O (centres undefined) , state the outcome it received in this test.
Result: active

Q: Given `CNc1cnn(-c2cccc(C(F)(F)F)c2)c(=O)c1Cl` , state the outcome it received in this test.
Result: active

Q: Given `CCCOCC(=Nc1ccc(Cl)cc1C(F)(F)F)n1ccnc1` , state the outcome it received in this test.
Result: active

Q: Given CCOP(=O)(SC(C)CC)N1CCSC1=O (centres undefined) , state the outcome it received in this test.
Result: active

Q: Given `CSc1nc(NC(C)C)nc(NC(C)C)n1` , state the outcome it received in this test.
Result: active

Q: Given CCOP(=O)(NC(C)C)Oc1ccc(SC)c(C)c1 (centres undefined) , state the outcome it received in this test.
Result: active

Q: Given `CCOP(=O)(OCC)Oc1cc(C)nc(C(C)C)n1` , state the outcome it received in this test.
Result: inactive

Continuing:
Q: Given `S=C1NCCN1` , state the outcome it received in this test.
Result: inactive

Q: Given `COc1cccc(C(=O)NN(C(=O)c2cc(C)cc(C)c2)C(C)(C)C)c1C` , state the outcome it received in this test.
Result: active

Q: Given `CCOP(=S)(OCC)Oc1ccc([N+](=O)[O-])cc1` , state the outcome it received in this test.
Result: active

Q: Given `CCOP(=S)(OCC)Oc1cc(C)nc(C(C)C)n1` , state the outcome it received in this test.
Result: active
